Provenance of the data: ChEMBL document CHEMBL1156313

compounds and their reported inhibition
study system: MAP kinase-activated protein kinase 2 (Homo sapiens) (UniProt P49137)
Sequence (P49137 whole entry, looked up): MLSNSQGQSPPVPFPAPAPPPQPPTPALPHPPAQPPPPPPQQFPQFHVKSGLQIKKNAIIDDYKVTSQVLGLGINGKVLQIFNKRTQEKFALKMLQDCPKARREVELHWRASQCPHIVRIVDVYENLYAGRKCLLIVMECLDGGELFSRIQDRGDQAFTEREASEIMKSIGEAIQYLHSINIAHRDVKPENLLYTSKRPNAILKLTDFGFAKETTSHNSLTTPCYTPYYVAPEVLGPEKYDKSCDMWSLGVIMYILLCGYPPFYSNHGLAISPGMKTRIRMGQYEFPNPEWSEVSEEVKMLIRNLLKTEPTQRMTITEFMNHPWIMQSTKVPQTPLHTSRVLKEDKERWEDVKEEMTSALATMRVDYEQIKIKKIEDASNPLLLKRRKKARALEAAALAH
protocol details: Inhibition of MAPKAPK2 at 10 uM
value kind: inhibition (%)

# structure string, number
data = [
    ("O=C1OC(/C=C/c2ccccc2)=NC/1=C\\c1cccnc1", 46),
    ("Cc1cc(C2=N/C(=C\\c3cccnc3)C(=O)O2)ccc1Br", 2),
    ("O=C1OC(c2ccccc2)=N/C1=C\\c1cccnc1", 5),
    ("Cc1cccc(C2=N/C(=C\\c3cccnc3)C(=O)O2)c1", 3),
]

---

study system: Mitogen-activated protein kinase 14 (Homo sapiens) (UniProt Q16539)
Sequence (Q16539 whole entry): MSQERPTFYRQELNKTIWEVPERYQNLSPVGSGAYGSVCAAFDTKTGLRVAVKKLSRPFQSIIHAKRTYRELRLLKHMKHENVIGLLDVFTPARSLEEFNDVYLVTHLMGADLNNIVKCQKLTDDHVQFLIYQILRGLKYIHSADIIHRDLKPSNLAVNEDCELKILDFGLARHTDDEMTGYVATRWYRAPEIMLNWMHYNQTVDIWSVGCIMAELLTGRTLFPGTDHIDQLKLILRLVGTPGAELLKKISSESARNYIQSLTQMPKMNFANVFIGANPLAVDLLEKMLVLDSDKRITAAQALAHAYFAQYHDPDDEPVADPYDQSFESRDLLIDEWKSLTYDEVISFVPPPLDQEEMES
protocol details: Inhibition of P38alpha at 10 uM
compounds and their reported inhibition
value kind: inhibition (%)

# structure string, value kind, number
rows = [
    ("O=C1OC(c2ccc(F)c(F)c2)=N/C1=C\\c1cccnc1", "inhibition", 8),
    ("O=C1OC(/C=C/c2ccccc2)=NC/1=C\\c1cccnc1", "inhibition", 8),
    ("O=C1OC(c2ccc(Cl)cc2)=N/C1=C\\c1cccnc1", "inhibition", 2),
    ("Cc1cccc(C2=N/C(=C\\c3cccnc3)C(=O)O2)c1", "inhibition", 1),
    ("O=C1OC(c2ccccc2)=N/C1=C\\c1cccnc1", "inhibition", 3),
    ("Cc1cc(C2=N/C(=C\\c3cccnc3)C(=O)O2)ccc1Br", "inhibition", 5),
]

---

study system: Death-associated protein kinase 3 (Homo sapiens, UniProt O43293)
Sequence (O43293 whole entry, looked up): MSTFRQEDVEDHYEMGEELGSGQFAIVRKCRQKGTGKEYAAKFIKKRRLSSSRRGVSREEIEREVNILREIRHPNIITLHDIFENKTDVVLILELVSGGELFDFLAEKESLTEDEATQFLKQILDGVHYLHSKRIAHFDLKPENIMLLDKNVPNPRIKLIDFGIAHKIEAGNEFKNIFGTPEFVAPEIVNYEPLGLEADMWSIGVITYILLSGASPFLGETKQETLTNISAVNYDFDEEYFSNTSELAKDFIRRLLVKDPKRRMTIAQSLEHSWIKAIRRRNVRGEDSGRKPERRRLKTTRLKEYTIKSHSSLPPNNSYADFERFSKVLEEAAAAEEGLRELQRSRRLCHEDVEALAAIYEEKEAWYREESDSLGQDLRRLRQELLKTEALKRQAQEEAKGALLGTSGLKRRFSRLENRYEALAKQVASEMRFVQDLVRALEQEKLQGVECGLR
protocol details: Inhibition of human recombinant DAPK3 at 10 uM
compounds and their reported inhibition

# structure string, inhibition (%)
measured = [
    ("COc1cccc(C2=N/C(=C\\c3cccnc3)C(=O)O2)c1", 100),
    ("O=C1OC(C23CC4CC(CC(C4)C2)C3)=N/C1=C\\c1cccnc1", 45),
    ("O=C1OC(c2ccc(Cl)cc2Cl)=N/C1=C\\c1cccnc1", 78),
    ("O=C1OC(/C=C/c2ccccc2)=NC/1=C\\c1cccnc1", 100),
    ("O=C1OC(c2ccc(Cl)cc2)=C/C1=C\\c1cccnc1", 3),
    ("O=C1OC(c2ccc(Cl)c([N+](=O)[O-])c2)=N/C1=C\\c1ccncc1", 10),
    ("COc1cc(C2=N/C(=C\\c3cccnc3)C(=O)O2)cc(OC)c1OC", 33),
    ("COc1ccc(C2=N/C(=C\\c3cccnc3)C(=O)O2)cc1Br", 32),
    ("Cc1cccc(C2=N/C(=C\\c3cccnc3)C(=O)O2)c1", 96),
    ("O=C1OC(c2cccc(Br)c2)=N/C1=C\\c1ccncc1", 0),
    ("O=C1OC(c2ccccc2)=N/C1=C\\c1ccccc1", 4),
]

---

study system: Death-associated protein kinase 3 (Homo sapiens, UniProt O43293)
protocol details: Inhibition of human recombinant DAPK3 at 1 uM
Criterion: inhibition meeting or surpassing 90%. Met: MET. Not met: NOT MET.

# structure string, assigned category
data = [
    ("O=C1OC(c2ccc(Cl)cc2)=N/C1=C\\c1cccnc1", "NOT MET"),
    ("COc1ccc(C2=N/C(=C\\c3cccnc3)C(=O)O2)cc1Br", "NOT MET"),
    ("O=C1OC(c2cccc(Br)c2)=N/C1=C\\c1cccnc1", "MET"),
    ("Cc1ccc(C2=N/C(=C\\c3cccnc3)C(=O)O2)cc1[N+](=O)[O-]", "NOT MET"),
    ("COc1ccc(C2=N/C(=C\\c3cccnc3)C(=O)O2)c(Br)c1", "MET"),
    ("O=C1OC(c2cccc(Cl)c2)=N/C1=C\\c1cccnc1", "NOT MET"),
    ("COc1cccc(C2=N/C(=C\\c3cccnc3)C(=O)O2)c1", "MET"),
    ("O=C1OC(c2cc(I)ccc2Cl)=N/C1=C\\c1ccncc1", "NOT MET"),
    ("O=C1OC(c2ccc(Cl)cc2Cl)=N/C1=C\\c1cccnc1", "NOT MET"),
]

---

compounds and their reported inhibition
study system: Death-associated protein kinase 3 (Homo sapiens)
protocol details: Inhibition of human recombinant DAPK3 at 1 uM

# structure string, unit annotation, inhibition
data = [
    ("O=C1OC(c2ccc(F)c(F)c2)=N/C1=C\\c1cccnc1", "%", 89),
    ("O=C1OC(c2ccc([N+](=O)[O-])cc2)=N/C1=C\\c1cccnc1", "%", 90),
    ("Cc1cc(C2=N/C(=C\\c3cccnc3)C(=O)O2)ccc1Br", "%", 88),
]
